Readings of koff for the listed binders
subjectOfTest: T1, His-tagged PD-L1 protein (human, UniProt Q9NZQ7 19-238)
T1 construct: also called His-tagged antigen PD-L1 protein; human PD-L1; not shown: His tag
experiment: SPR, Biacore T200, multi-cycle; Fab captured on chip, His-tagged PD-L1 as analyte
Procedure: A combinatorial humanization phage display library was constructed using the heavy chain and light chain variable domain sequences of mAb PDL1#10. […] The binding affinity of the 14 purified Fabs to His-tagged PD-L1 protein were determined using a Surface Plasmon Resonance (SPR) biosensor, Biacore T200 (GE Healthcare) for multi-cycle affinity measurements. […] The equilibrium dissociation constants (KD) were calculated from the ratio of kd over ka.
Kindly write the number and append the unit.

binder	measuredProperty	reading
murine-human chimeric Fab (from mAb PDL1#10) (Fab, V domains shown) VH: EVQLQQSGAELVRPGSSVKMSCKTSGYTFTSYSINWVKQRPGQGLEWIAYFYVGNGYTDYNEKFKGKATLTSDTSSSTAYMQLSSLTSEDSAIYFCARGGLPYYFDYWGQGTTLTVSS VL: DIVMTQSHKFMSTSVGDRVSITCKTSQDVNTAVAWYQQKPGHSPKLLFYWASTRHTGVPDRFTGGGSGTDYTLTISSVQAEDLALYYCQQHYNTPLTFGAGTRLELKR	koff	0.00021 s⁻¹

Now consider the entry below.
Reported koff, binder AS01817 (humanized Fab) (Fab, V domains shown, Purified humanized Fab) VH: EVQLVQSGAEVKKPGESLKISCKGSGYSFTSYSINWVRQAPGKGLEWMGYFYVGNGYTDYNEKFKGRVTITRDTSASTAYMELSSLRSEDTAVYYCARGGLPYYFDYWGQGTLVTVSS VL: DIQLTQSPSFLSASVGDRVTITCKTSQDVNTAVAWYQQKPGQPPKLLIYWASTRHTGVPSRFSGSGSGTDFTLTISSLQPEDFATYYCQQHYNTPLTFGGGTKLEIK : ____
0.00032 s⁻¹
